test system: VIM-2 metallo-beta-lactamase (Pseudomonas aeruginosa); experiment: inhibition of VIM-2 nitrocefin hydrolysis – biochemical, epi-absorbance readout, Pseudomonas aeruginosa enzyme, primary screen (AID 1527); details: purified VIM-2, nitrocefin hydrolysis, epi-absorbance fluorescence; at 5.6 µM; hits give high values;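 also: red hydrolysis product quenches plate fluorescence so inhibitors raise well fluorescence; 0% = enzyme with DMSO and 100% = DMSO without enzyme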
In all, about 290,000 compounds went through this assay and about 2,600 (0.9%) were called active. This is one part of a sample in which actives are shown more often than they occur.
OBSERVED PROPERTY: inhibition (%)

# COMPOUND, UNIT TAG, RESULT
records = [
    ("C/C(N)=C(/C#N)C(=O)COC(=O)C1=NN(c2ccccc2)C(=O)CC1", "%", -2.51),
    ("Cc1ccc(SCC(=O)c2cc(C)c(OC(=S)N(C)C)c(C)c2)cc1", "%", -4.92),
    ("CCS(=O)(=O)N1CCC(N2CCN(c3ccccc3)CC2)CC1", "%", -1.31),
    ("CCc1ccc(/C=C2\\SC(N3CCOCC3)=NC2=O)cc1", "%", -0.98),
    ("Brc1ccccc1C1N=C(c2ccccc2)NO1 (stereo unspecified)", "%", -2.78),
    ("Cc1cc(=O)oc2c(C)c(OC(C)C(=O)NC3CCN(Cc4ccccc4)CC3)ccc12 (stereo unspecified)", "%", 2.37),
]

* * *

tested on: VIM-2 metallo-beta-lactamase (Pseudomonas aeruginosa); experiment: inhibition of VIM-2 nitrocefin hydrolysis – biochemical, epi-absorbance readout, Pseudomonas aeruginosa enzyme, primary screen (AID 1527); conditions: purified VIM-2, nitrocefin hydrolysis, epi-absorbance fluorescence; at 5.6 µM; hits give high values;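 also: red hydrolysis product quenches plate fluorescence so inhibitors raise well fluorescence; 0% = enzyme with DMSO and 100% = DMSO without enzyme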
Among all 290,000 compounds or so, about 2,600 (0.9%) were called active. The full list was thinned out, with actives kept by preference.
inhibition: recorded values
OBSERVED PROPERTY: inhibition (%)

# COMPOUND, TARGET OR SYSTEM, OBSERVED PROPERTY, UNIT TAG, RESULT
measured = [
    ("CCSc1nc2sc3c(c2c(=O)[nH]1)CC(C)(C)OC3", "VIM-2 metallo-beta-lactamase (Pseudomonas aeruginosa)", "inhibition", "%", 0.86),
    ("Cc1nc(/N=C(\\N)NC(=O)NC2CCCCC2)nc2ccccc12", "VIM-2 metallo-beta-lactamase (Pseudomonas aeruginosa)", "inhibition", "%", -2.89),
    ("OCCN1CCN(c2nnc(-c3ccccc3)c3ccccc23)CC1", "VIM-2 metallo-beta-lactamase (Pseudomonas aeruginosa)", "inhibition", "%", 1.21),
    ("CCC1(C)Cc2c(sc3nc(SC)nc(N)c23)CO1 (stereo unspecified)", "VIM-2 metallo-beta-lactamase (Pseudomonas aeruginosa)", "inhibition", "%", -3.26),
    ("CCN(CC)CCCNC(=O)COc1ccc2oc3c(c2c1)CCCC3", "VIM-2 metallo-beta-lactamase (Pseudomonas aeruginosa)", "inhibition", "%", -0.12),
    ("COc1nc(N=C(N)N)nc2c(C)cccc12", "VIM-2 metallo-beta-lactamase (Pseudomonas aeruginosa)", "inhibition", "%", 14.3),
]

* * *

test system: VIM-2 metallo-beta-lactamase (Pseudomonas aeruginosa); test: inhibition of VIM-2 nitrocefin hydrolysis – biochemical, epi-absorbance readout, Pseudomonas aeruginosa enzyme, primary screen (AID 1527); conditions: purified VIM-2, nitrocefin hydrolysis, epi-absorbance fluorescence; at 5.6 µM;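 also: red hydrolysis product quenches plate fluorescence so inhibitors raise well fluorescence; 0% = enzyme with DMSO and 100% = DMSO without enzyme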
About 2,600 (0.9%) of roughly 290,000 compounds were called active.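 The calls were made as follows: active = inhibition above the mean of all tested compounds plus 3 SD, cutoff set per screening run (cut at about 7.5% in these data); inactive = the rest.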 The entries come from a sample that favours actives as a whole.
Outcomes: active, inactive

# MOLECULE, CLASS
rows = [
    ("CCCCc1nc2cc(C(=O)NCCc3cnn(C)c3)ccc2o1", "inactive"),
    ("CCCCNC(=S)NNC(=O)c1cc(C)on1", "active"),
    ("FC(F)(F)c1nnc2c3ccccc3c(Cl)nn12", "inactive"),
    ("Cc1cc(-c2ccc(/C=N/n3cnnc3)o2)c([N+](=O)[O-])cc1C", "active"),
    ("O=C(/C=C/c1ccc2c(c1)OCCO2)c1ccc(O)cc1", "inactive"),
    ("CN1CCN(CCCNC(=O)c2cc3c(=O)oc4ccccc4c3s2)CC1", "active"),
    ("CCN(CC)CCCNC(=O)c1cc(-c2cccc(Cl)c2)on1", "inactive"),
    ("Nc1nnc2c(C(F)(F)F)nc3ccccc3n12", "active"),
    ("CCCc1nn2c(=O)cc(CSCC(=O)Nc3cccc(C)c3)nc2s1", "inactive"),
    ("Cc1ccccc1-c1n[nH]c(=S)n1C", "inactive"),
    ("Cc1cc(C)c([N+](=O)[O-])cc1-c1ccc(/C=N/NC(=O)c2nonc2N)o1", "inactive"),
    ("Cc1ccccc1OCCOc1ccc([N+](=O)[O-])cc1/C=N/n1cnnc1", "inactive"),
    ("O=C(CCc1ccccc1)NNC(=O)COc1ccc(Cl)cc1", "inactive"),
    ("CCOC(=O)N1CCN(C(=O)C2CCN(S(=O)(=O)c3cc(Cl)ccc3OCC)CC2)CC1", "inactive"),
    ("Cc1cc([N+](=O)[O-])c(-c2ccc(/C=N/n3cnnc3)o2)cc1Cl", "active"),
    ("O=c1c2ccccc2oc2nc(C3CCCCC3)n(Cc3ccco3)c(=O)c12", "inactive"),
    ("O=C1Nc2cc(C(=O)N3CCC(N4CCCCC4)CC3)ccc2S/C1=C\\c1ccccc1", "active"),
    ("CC(=O)c1cccc(NC(=O)COc2ccc(S(=O)(=O)N3CCOCC3)cc2)c1", "inactive"),
    ("CCOC(=O)C1(Cc2ccccc2C)CCCN(S(C)(=O)=O)C1 (stereo unspecified)", "inactive"),
    ("Cc1ccc(CN(N=Nc2nonc2N)c2nonc2N)c(C)c1", "inactive"),
    ("Cc1nn(-c2cc(Cl)ccc2N)c(=O)c2ccccc12", "inactive"),
    ("COc1ccc(OCC(=O)NCCS(=O)(=O)N2CCN(c3ccc(F)cc3)CC2)cc1", "inactive"),
    ("COCCCNC(=S)NNC(=O)C(O)(c1ccccc1)c1ccccc1", "inactive"),
    ("COc1ccccc1OCCn1c(SCC(N)=O)nc2ccccc21", "inactive"),
    ("CCOC(=O)C1CCN(c2ncnc3c2oc2ccc(Br)cc23)CC1", "inactive"),
    ("COc1ccc(CNc2ccc3c(c2)CCC3)cc1OC", "inactive"),
    ("CN(C)Cc1c(O)ccc2c(=O)c(-c3ccccc3Cl)coc12", "inactive"),
    ("Fc1ccc(Br)cc1/C=N/n1cnnc1", "inactive"),
    ("CCC(=C/c1sc2ccc3ccccc3c2[n+]1C)/C=C1\\Sc2ccc3ccccc3c2N1C", "active"),
    ("O=C(NC1CC1)c1ccc2c(c1)NC(=O)c1ccccc1S2", "inactive"),
    ("Cn1c(-c2sccc2OCc2cccc(C(F)(F)F)c2)n[nH]c1=S", "active"),
    ("CC(NC(=O)C1CCCN(S(=O)(=O)c2ccc(-n3cnnn3)cc2)C1)c1ccc(F)cc1 (stereo unspecified)", "inactive"),
    ("O=C(NCCCN1CCOCC1)c1cc2c(s1)CCC2", "inactive"),
    ("O=C(NCCN1CCN(Cc2ccccc2)CC1)c1cc2c(=O)[nH]c3ccccc3c2s1", "inactive"),
    ("Cn1c(-c2sc3cc(C(F)(F)F)cnc3c2-c2ccccc2)n[nH]c1=S", "inactive"),
    ("COCCCn1c(SCC(=O)NC2CCCC2)nnc1-c1ccccc1", "inactive"),
    ("CCCCC(CC(C)O)c1n[nH]c(=S)n1-c1ccccc1 (stereo unspecified)", "inactive"),
    ("O=c1c2ccccc2oc2nc3n(c(=O)c12)CCCS3", "active"),
    ("Clc1cc(-c2ccc(/C=N/n3cnnc3)o2)ccc1Br", "active"),
    ("Cc1ccc(NS(=O)(=O)c2ccc3c(c2)NC(=O)CO3)cc1", "inactive"),
    ("O=C(O)CCCn1c(=O)c2cccn2c2ccc(F)cc21", "inactive"),
    ("CCC(NC(=O)c1cc(COc2ccc(F)c(F)c2)on1)c1ccncc1 (stereo unspecified)", "inactive"),
    ("COc1cc(NS(=O)(=O)c2ccc(NC(=O)c3ccc([N+](=O)[O-])cc3)cc2)ncn1", "inactive"),
    ("Cc1cccc(-c2nc(Nc3ccc(O)cc3)c3ccccc3n2)c1", "inactive"),
    ("COc1ccc(C(=O)/C=C/c2cccnc2)c(OC)c1", "inactive"),
    ("CC(C)n1c(=O)[nH]c2cc(C(=O)Nc3ccccc3)ccc21", "inactive"),
]
